Settings: pH 7.4
The following compounds are listed with their measured Chrom logD values.

Would you please look over these solved cases?
- [Fe+2].c1cc[cH-]c1.c1ccc2c(c1)ccn2Cc1cn(-[c-]2cccc2)nn1 [Compound 24c]: >6.57
- Ic1ccc2c(ccn2Cc2cn(-[c-]3cccc3)nn2)c1.[Fe+2].c1cc[cH-]c1 [Compound 25c]: >6.57
- CC([c-]1cccc1)n1cc(Cn2ccc3ccccc32)nn1.[Fe+2].c1cc[cH-]c1 (stereo not drawn) [Compound 24b]: >6.57
- CC([c-]1cccc1)n1cc(Cn2ccc3cc(I)ccc32)nn1.[Fe+2].c1cc[cH-]c1 (stereo not drawn) [Compound 25b]: >6.57
- [Fe+2].c1cc[cH-]c1.c1ccc2c(c1)ncn2Cc1cn(C[c-]2cccc2)nn1 [Compound 23a]: 4.56

Chrom logD for CC([c-]1cccc1)n1cc(Cn2cnc3ccccc32)nn1.[Fe+2].c1cc[cH-]c1 (stereo not drawn) [Compound 23b] ?
4.84

Chrom logD for [Fe+2].c1cc[cH-]c1.c1ccc2c(c1)ncn2Cc1cn(-[c-]2cccc2)nn1 [Compound 23c] ?
4.45

Chrom logD for [Fe+2].c1cc[cH-]c1.c1ccc2c(c1)ccn2Cc1cn(C[c-]2cccc2)nn1 [Compound 24a] ?
>6.57

Chrom logD for Ic1ccc2c(ccn2Cc2cn(C[c-]3cccc3)nn2)c1.[Fe+2].c1cc[cH-]c1 [Compound 25a] ?
>6.57
